Biological target: porcine pancreatic PLA2 (Sus scrofa, UniProt P00592)
Sequence (P00592 23-146): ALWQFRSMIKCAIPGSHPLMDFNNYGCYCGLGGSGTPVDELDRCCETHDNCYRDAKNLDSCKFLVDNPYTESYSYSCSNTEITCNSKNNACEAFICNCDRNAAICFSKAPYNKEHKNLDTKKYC
pIC50: −log10 of the molar value.
recorded.metric: pIC50

Observe how each entry below is paired with its result.
>  <molecule>
CCCCCCCCCCCCCCCCCCSCC(COP(=O)([O-])OCC[N+](C)(C)C)NC(C)=O (centres unmarked) [Compound 10B]

>  <recorded.metric>
pIC50

>  <obs.value>
6.28

$$$$
>  <molecule>
CCCCCCCCSCC(COP(=O)([O-])OCC[N+](C)(C)C)NC(C)=O (centres unmarked) [Compound 10D]

>  <recorded.metric>
pIC50

>  <obs.value>
5.05

$$$$

a. CCCCCCSCC(COP(=O)([O-])OCC[N+](C)(C)C)NC(C)=O (centres unmarked) [Compound 10E]
b. CCCCCCCCCCCCCCCCCCSCC(COP(=O)([O-])OCC[N+](C)(C)C)NC(=O)CCCCCCCCCCCCCCCCC (centres unmarked) [Compound 13BI]
c. CCCCCCCCCCCCCCCCSCC(COP(=O)([O-])OCC[N+](C)(C)C)NC(C)=O (centres unmarked) [Compound 10C]
Arrange the 3 entries by pIC50 so the values rise. List the labels, following the order given in the request.
a, c, b
